Hey, just so you know, these numbers are from patent US20120165319A1.

Test: Pharmacokinetic studies in the mouse (i.v. clearance, plasma levels)
Type: in vivo
Conditions: CD-1, plasma, iv; mouse, 25 mg/kg
Method: Pharmacokinetic Studies in the Mouse Sample Preparation and Dosing Compounds were dissolved in sterile TRIS solution (0.02M or 0.05M) at a concentration of 2.5 mg/ml. […] Drug concentration in the plasma samples were determined by HPLC analysis with UV or MS (ESP) detection. […] Quantitation was by external standard methods with calibration curves constructed by spiking plasma with drug solutions to give concentrations in the range of 0.5 to 50 μg/ml. […]
Experimental endpoint: clearance (mL/min/kg)
The reply should be a number in mL/min/kg, with the unit left off.

O=C[C@H](CC(=O)O)NC(=O)[C@@H]1CCCN2C(=O)CC[C@H](NC(=O)c3ccccc3)C(=O)N12 [Compound 214e]; 23
O=C[C@H](CC(=O)O)NC(=O)[C@@H]1CCCN2C(=O)CC[C@H](NC(=O)c3cc4ccccc4[nH]3)C(=O)N12 [Compound 475]; 31
O=C[C@H](CC(=O)O)NC(=O)[C@@H]1CCCN2CCC[C@H](NC(=O)c3ccccc3)C(=O)N12 [Compound 246]; 31

Now, please, on to the next molecule.
Note to self: clearance recorded for CS(=O)(=O)N[C@H]1CCC(=O)N2CCC[C@@H](C(=O)N[C@@H](CC(=O)O)C(=O)COC(=O)c3c(Cl)cccc3Cl)N2C1=O [Compound 138] was 116

###

System: IL-1β, human peripheral blood mononuclear cells (PBMC)
Test: PBMC cell assay: IL-1β assay with human PBMC or enriched adherent mononuclear cells, LPS-stimulated
Type: cell-based
Conditions: Homo sapiens, PBMC, * = values obtained upon reassay
Excerpt: IL-1β Assay with a Mixed Population of Human Peripheral Blood Mononuclear Cells (PBMC) or Enriched Adherent Mononuclear Cells Processing of pre-IL-1β by ICE can be measured in cell culture using a variety of cell sources. Human PBMC obtained from healthy donors provides a mixed population of lymphocyte subtypes and mononuclear cells that produce a spectrum of interleukins and cytokines in response to many classes of physiological stimulators. […]
Would you mind sorting the entries by IC50 according to these classes? 0: < 900 nM; 1: ≥ 900 nM and < 2000 nM; 2: ≥ 2000 nM

Solved entries:
CS(=O)(=O)N[C@H]1CCC(=O)N2CCC[C@@H](C(=O)N[C@@H](CC(=O)O)C(=O)c3ncc(-c4c(Cl)cccc4Cl)o3)N2C1=O [Compound 220b]; 2
CC(=O)C(=O)N1C[C@H](NC(=O)c2ccccc2)C(=O)N(CC(=O)N[C@H](C=O)CC(=O)O)c2ccccc21 [Compound 605i]; 2
O=C[C@H](CC(=O)O)NC(=O)[C@@H]1CCCN2C(=O)CC[C@H](NC(=O)c3ccc(F)c(Cl)c3)C(=O)N12; 1
O=C[C@H](CC(=O)O)NC(=O)[C@@H]1CCCN2C(=O)CC[C@H](NC(=O)c3ccc(Cl)cc3)C(=O)N12; 1

Which of the defined bands does the recorded IC50 of COC1OC(=O)C[C@@H]1NC(=O)[C@@H]1CCCN2C(=O)CC[C@H](NC(=O)c3ccccc3)C(=O)N12 (stereo partly shown) [Compound 304a] sit within?
1

Which of the defined bands does the recorded IC50 of Cc1c(O)cccc1C(=O)N[C@H]1CCC(=O)N2CCC[C@@H](C(=O)N[C@H](C=O)CC(=O)O)N2C1=O sit within?
1

###

Target: ICE (Homo sapiens, UniProt P29466)
Sequence (P29466 120-297 limits assumed): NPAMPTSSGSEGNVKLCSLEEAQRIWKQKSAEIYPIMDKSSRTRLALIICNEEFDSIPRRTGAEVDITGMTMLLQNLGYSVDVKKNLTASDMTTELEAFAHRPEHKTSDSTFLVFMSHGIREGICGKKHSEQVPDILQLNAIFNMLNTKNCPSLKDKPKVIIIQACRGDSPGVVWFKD
Sequence (P29466 317-404 limits assumed): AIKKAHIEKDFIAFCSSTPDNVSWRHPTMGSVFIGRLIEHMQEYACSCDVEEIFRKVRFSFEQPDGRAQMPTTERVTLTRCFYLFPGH
Assay: Enzyme assay with UV-visible substrate (visible ICE assay, Succinyl-Tyr-Val-Ala-Asp-pNitroanilide)
Assay type: biochemical
Settings: Table 17
pKi: −log10 of the molar value.
Lab note: compare pKi against 7. Equal or greater, write yes. Smaller, write no.

Solved entries:
COCC(=O)N1C[C@H](NC(=O)c2cc(Cl)c(O)c(Cl)c2)C(=O)N(CC(=O)N[C@H](C=O)CC(=O)O)c2ccccc21 [Compound 689a]; yes
O=C[C@H](CC(=O)O)NC(=O)CN1C(=O)[C@@H](NC(=O)c2cc3ccccc3[nH]2)CN(C(=O)CO)c2ccccc21 [Compound 919]; yes
COc1ccc(C(=O)N[C@H]2CCC(=O)N3CCC[C@@H](C(=O)N[C@H](/C=N/OCc4ccccc4)CC(=O)O)N3C2=O)cc1 [Compound 308d]; no
CC(=O)Nc1ccc(C(=O)NN2CCC(=O)N3CCC[C@@H](C(=O)N[C@H](C=O)CC(=O)O)N3C2=O)cc1 [Compound 1018]; no
O=C(O)C[C@H](NC(=O)[C@@H]1CCCN2C(=O)CC[C@H](NC(=O)c3ccccc3)C(=O)N12)C(=O)Cn1cnccc1=O [Compound 510d]; no
CC(=O)N1C[C@H](NC(=O)C(=O)c2c[nH]c3ccccc23)C(=O)N(CC(=O)N[C@H](C=O)CC(=O)O)c2ccccc21 [Compound 703]; yes
COc1ccccc1C(=O)C(=O)N[C@H]1CN(C(C)=O)c2ccccc2N(CC(=O)N[C@H](C=O)CC(=O)O)C1=O [Compound 705]; yes
CC(=O)Nc1ccc(C(=O)N[C@H]2CN(C(=O)CO)c3ccccc3N(CC(=O)N[C@H](C=O)CC(=O)O)C2=O)cc1 [Compound 911]; yes
CN(C)c1ccc(C(=O)N[C@H]2CN(C(=O)CO)c3ccccc3N(CC(=O)N[C@H](C=O)CC(=O)O)C2=O)cc1 [Compound 913]; yes
O=C[C@H](CC(=O)O)NC(=O)[C@@H]1CCCN2C(=O)CCN(NC(=O)Cc3ccccc3)C(=O)N12 [Compound 1095]; no

Continue with the next compound.
Say whether COc1cccc(OC)c1C(=O)C(=O)N[C@H]1CN(C(C)=O)c2ccccc2N(CC(=O)N[C@H](C=O)CC(=O)O)C1=O [Compound 706] shows pKi of 7 or more.
yes

###

Target: ICE (Homo sapiens)
Experiment: Enzyme assay with UV-visible substrate (visible ICE assay, Succinyl-Tyr-Val-Ala-Asp-pNitroanilide)
Assay type: biochemical
Conditions: Table 17
Below, each entry is listed alongside its reported log10(Ki).
Hey, these are logged values: log10 of Ki, nM being the unit before logging.

COc1c(C)cc(C(=O)N[C@H]2CN(C(C)=O)c3ccccc3N(CC(=O)N[C@H](C=O)CC(=O)O)C2=O)cc1C [Compound 684]; 1.18

Note to self: log10(Ki) recorded for O=C[C@H](CC(=O)O)NC(=O)[C@@H]1CCCN2C(=O)CC[C@H](NC(=O)c3cc(Cl)c(O)c(Cl)c3)C(=O)N12 [Compound 214k] was -0.70

Note to self: log10(Ki) recorded for COc1c(Cl)cc(C(=O)NN2CCC(=O)N3CCC[C@@H](C(=O)N[C@H](C=O)CC(=O)O)N3C2=O)cc1Cl [Compound 1125] was 1.74

Note to self: log10(Ki) recorded for O=C[C@H](CC(=O)O)NC(=O)[C@@H]1CCCN2C(=O)CCN(NC(=O)CCc3ccc4c(c3)OCO4)C(=O)N12 [Compound 1114] was 2.10

Note to self: log10(Ki) recorded for O=C[C@H](CC(=O)O)NC(=O)CN1C(=O)[C@@H](NC(=O)C(=O)c2ccccc2)CN(C(=O)CO)c2ccccc21 [Compound 681] was 0.95

Note to self: log10(Ki) recorded for COCC(=O)N1C[C@H](NC(=O)c2cc(C)c(O)c(C)c2)C(=O)N(CC(=O)N[C@H](C=O)CC(=O)O)c2ccccc21 [Compound 689b] was 0.34

###

Below, each entry is listed alongside its reported melting point.

CC(C)CC(=O)Nc1ccc(C(=O)N[C@H]2CCC(=O)N3CCC[C@@H](C(=O)N[C@H](C=O)CC(=O)O)N3C2=O)cc1; 176 to 180 °C
O=C[C@H](CC(=O)O)NC(=O)[C@@H]1CCCN2C(=O)CCN(NC(=O)c3ccc(O)cc3)C(=O)N12; > 300 °C
O=C[C@H](CC(=O)O)NC(=O)[C@@H]1CCCN2C(=O)CC[C@H](NC(=O)c3ccc(NC(=O)Cc4ccccc4)cc3)C(=O)N12; 165 to 169 °C
CC(=O)Nc1cccc(C(=O)N[C@H]2CCC(=O)N3CCC[C@@H](C(=O)N[C@H](C=O)CC(=O)O)N3C2=O)c1; 175 to 179 °C
O=C(O)CC(NC(=O)Cn1c(Cc2ccccc2)ccc(NC(=O)CCc2ccccc2)c1=O)C(=O)COC(=O)c1c(Cl)cccc1Cl (stereo not shown) [Compound 57b]; 116 to 120 °C (dec.)

Note to self: melting point recorded for O=C[C@H](CC(=O)O)NC(=O)[C@@H]1CCCN2C(=O)CC[C@H](NC(=O)c3cccc4ccccc34)C(=O)N12 was 157 to 165 °C

Note to self: melting point recorded for O=C[C@H](CC(=O)O)NC(=O)[C@@H]1CCCN2CCC[C@H](NC(=O)CCc3ccccc3)C(=O)N12 [Compound 47b] was 87 to 90 °C

###

Target: ICE (Homo sapiens)
Experiment: Enzyme assay with UV-visible substrate (visible ICE assay, Succinyl-Tyr-Val-Ala-Asp-pNitroanilide)
Type: biochemical
Conditions: Table 5
Experimental: 1. Enzyme Assay with Uv-Visible Substrate This assay is run using an Succinyl-Tyr-Val-Ala-Asp-pNitroanilide substrate. Synthesis of analogous substrates is described by L. A. Reiter (Int. J. Peptide Protein Res. 12, 87-96 (1994)). The assay mixture contains: The visible ICE assay is run in a 96-well microtiter plate. […] The microtiter plate reader is set to incubate at 37° C. […] A linear fit of the data is performed and the rate is calculated in mOD/min. […]
# strict inequality: Ki < 100 nM yields Yes, everything else yields No

Solved entries:
O=C[C@H](CC(=O)O)NC(=O)[C@@H]1CCCN2C(=O)CC[C@H](NC(=O)c3cc4ccsc4s3)C(=O)N12 [Compound 442]; Yes
O=C[C@H](CC(=O)O)NC(=O)[C@@H]1CCCN2C(=O)CC[C@H](NC(=O)c3ccc4nc[nH]c4c3)C(=O)N12 [Compound 434]; Yes

Take the compound O=C[C@H](CC(=O)O)NC(=O)[C@@H]1CCCN2C(=O)CC[C@H](NC(=O)c3cccc4cccnc34)C(=O)N12 [Compound 439] and say whether its Ki is less than 100 nM.
Yes

Take the compound CC(C)CC(=O)N1C[C@H](NC(=O)c2ccccc2)C(=O)N(CC(=O)N[C@H](C=O)CC(=O)O)c2ccccc21 [Compound 605f] and say whether its Ki is less than 100 nM.
No

Take the compound COc1ccc(C(=O)N[C@H]2CCC(=O)N3CCC[C@@H](C(=O)N[C@H](C=O)CC(=O)O)N3C2=O)cc1Cl [Compound 497] and say whether its Ki is less than 100 nM.
Yes
